Target Under Test: VIM-1 (Pseudomonas aeruginosa)
Experiment: Enzyme activity: determination of IC50, fluorescence assay with CCF2-FA substrate
Assay type: biochemical
Reported Conditions: VIM-1 enzyme 30 pM, CCF2-FA 1.25 μM, 2 hours at 25° C.; read-out: VIM1 IC50
Categories are defined by ranges of IC50, namely category 1 = under 6 nM, category 2 = from 6 nM up to 10 nM, category 3 = 10 nM and over

For orientation, consider the following solved cases.
INSERT INTO results (molecule, target_under_test, group_label) VALUES
  ('CC(C)C[C@H](C(=O)O)[C@H](Cc1ccc(COC2CCNCC2)c(F)c1)c1nn[nH]n1.O=C(O)C(F)(F)F [Example 447, 2,2,2-trifluoroacetate]', 'VIM-1 (Pseudomonas aeruginosa)', 'category 2'),
  ('CCC[C@H](C(=O)O)[C@H](Cc1ccc(C(=O)N(C)C)cc1)c1nnn[nH]1', 'VIM-1 (Pseudomonas aeruginosa)', 'category 3'),
  ('CCC[C@H](C(=O)O)[C@H](Cc1cccc(N2CCOCC2)c1)c1nn[nH]n1', 'VIM-1 (Pseudomonas aeruginosa)', 'category 3');

For the record `CCC[C@H](C(=O)O)[C@H](Cc1ccc(C2CCN(C)CC2)cc1)c1nn[nH]n1` , report the class its IC50 corresponds to.
category 3

Follow-up entry: CC(C)C[C@H](C(=O)O)[C@H](Cc1ccc(C2=CCCNC2)c(F)c1)c1nn[nH]n1 [Example 450, 2,2,2-trifluoroacetate]
category 1

Follow-up entry: CCC[C@H](C(=O)O)[C@H](Cc1cccc(N2CCCC(O)C2)c1)c1nn[nH]n1 (stereo partly drawn)
category 3

Try `CC(C)C[C@H](C(=O)O)[C@H](Cc1ccc(N2CC(CCN)C2)nc1)c1nnn[nH]1` next.
category 3

// next record `CCC[C@H](C(=O)O)[C@H](Cc1ccc(C2CCNCC2)nc1)c1nnn[nH]1`
category 2

Please do the same for CCC[C@H](C(=O)O)[C@H](Cc1ccc(C2(O)CCNC2)cc1)c1nnn[nH]1.O=C(O)C(F)(F)F (stereo partly drawn) [Example 432, 2,2,2-trifluoroacetate] as well.
category 1

Next record, please: `CCC[C@H](C(=O)O)[C@H](Cc1nnc(N)s1)c1nnn[nH]1`
category 3

Now the same for `CCC[C@H](C(=O)O)[C@H](Cc1ccc(CCCO)cc1)c1nn[nH]n1`
category 2
